Assay: Biodistribution by gamma well counting at 90 min post-injection
Type: in vivo, Lewis rats
Conditions: Lewis, rat, spleen, iv, total radioactivity; 90 min after intravascular injection; read-out: uptake in spleen
measurement kind: tissue uptake at […] (%ID/g)
One number for each entry, in %ID/g.

*Q* Dear colleague, I am looking for the recorded tissue uptake at […] of the following compound: N=C(N)NCCC[C@@H]1NC(=O)[C@H](CCCCNC(=O)COCCOCCn2cc(CNC(=O)CC[C@H](NC(=O)CCOCCOCCOCCOCCNC(=S)Nc3ccc(CC4CN(CC(=O)O)CCN(CC(=O)O)CCN4CC(=O)O)cc3)C(=O)NCc3cn(CCOCCOCC(=O)NCCCC[C@@H]4NC(=O)[C@@H](Cc5ccccc5)NC(=O)[C@H](CC(=O)O)NC(=O)CNC(=O)[C@H](CCCNC(=N)N)NC4=O)nn3)nn2)NC(=O)[C@@H](Cc2ccccc2)NC(=O)[C@H](CC(=O)O)NC(=O)CNC1=O (stereo partly shown) [compound 7]
*A* 2.25
